Value source: patent US9113629B2

Test system: VERPE: bird's-eye speedwell (veronica persica)
Test: Post-emergent Test III, herbicidal activity in wheat and barley
Assay type: in vivo
Settings: Veronica persica, post-emergence, 504 h; Table 8; 70 g ai/ha; post-emergent; 21 d; read-out: Visual Growth Reduction (%) 21 Days After Application VERPE
ASSAY_METRIC: pest or weed control at 70 g/ha

compound="COC(=O)c1nc(-c2ccc(C#N)c(F)c2)c(F)c(N)c1Cl [Compound 135]" assay_metric="pest or weed control at 70 g/ha" result="75 to 84%"
compound="COC(=O)c1nc(-c2ccc(I)c(F)c2)nc(N)c1OC [Compound 27]" assay_metric="pest or weed control at 70 g/ha" result="85 to 94%"
compound="COC(=O)c1nc(-c2ccc(I)c(F)c2)c(C)c(N)c1Cl [Compound 79]" assay_metric="pest or weed control at 70 g/ha" result="85 to 94%"
compound="Nc1cc(-c2cc(F)c(Br)cc2F)nc(C(=O)O)c1Cl [Compound 3]" assay_metric="pest or weed control at 70 g/ha" result="60 to 74%"
compound="COc1c(N)nc(-c2ccc(Br)c(F)c2)nc1C(=O)O [Compound 113]" assay_metric="pest or weed control at 70 g/ha" result="85 to 94%"
compound="Nc1c(Cl)c(C(=O)O)nc(-c2ccc(Br)c(F)c2)c1Cl [Compound 43]" assay_metric="pest or weed control at 70 g/ha" result="75 to 84%"

----------
Each entry below carries its reported pest or weed control at 70 g/ha.
System: Key Grass and Sedge Weeds as well as Grass Crops
Test: Post-emergent Test II herbicidal activity (Table 6)
Format: in vivo
Settings: post-emergence, 336 h, SETFA: giant foxtail (Setaria faberi), application rate 70 g ai/ha, read-out: Visual Growth Reduction (%) 14 Days After Application, SETFA
ASSAY_METRIC: pest or weed control at 70 g/ha

structure_as_smiles=Nc1cc(-c2ccc(I)c(F)c2F)nc(C(=O)O)c1Cl result="95 to 100%"
structure_as_smiles=Cc1c(-c2ccc(OC(F)F)cc2)nc(C(=O)O)c(Cl)c1N result="0 to 29%"
structure_as_smiles=COC(=O)c1nc(-c2cc(F)c(F)cc2F)c(F)c(N)c1Cl result="45 to 59%"
structure_as_smiles=Cc1cc(F)c(-c2cc(N)c(Cl)c(C(=O)O)n2)cc1F result="0 to 29%"
structure_as_smiles=Nc1c(Cl)c(C(=O)O)nc(-c2ccc(Br)cc2)c1Cl result="85 to 94%"

----------
Test system: Key Grass and Sedge Weeds as well as Grass Crops
Experiment: Post-emergent Test II herbicidal activity (Table 6)
Format: in vivo
Conditions: post-emergence, 336 h, TRZSS (wheat, Triticum aestivum), crop, 70 g ai/ha, read-out: Visual Growth Reduction (%) 14 Days After Application, TRZSS
ASSAY_METRIC: pest or weed control at 70 g/ha

molecule="COC(=O)c1nc(-c2ccc(OC(F)F)cc2)nc(N)c1OC [Compound 106]" assay_metric="pest or weed control at 70 g/ha" result="0 to 29%"
molecule="COC(=O)c1nc(-c2ccc(OC(F)F)cc2)c(F)c(N)c1Cl [Compound 85]" assay_metric="pest or weed control at 70 g/ha" result="30 to 44%"
molecule="COC(=O)c1nc(-c2ccc(Cl)c(F)c2)c(F)c(N)c1Cl [Compound 216]" assay_metric="pest or weed control at 70 g/ha" result="0 to 29%"
molecule="COC(=O)c1nc(-c2ccccc2)c(F)c(N)c1Cl [Compound 181]" assay_metric="pest or weed control at 70 g/ha" result="0 to 29%"
molecule="COc1c(N)nc(-c2ccc(I)cc2)nc1C(=O)O [Compound 88]" assay_metric="pest or weed control at 70 g/ha" result="60 to 74%"
molecule="COC(=O)c1nc(-c2ccc(I)cc2)cc(N)c1Cl [Compound 158]" assay_metric="pest or weed control at 70 g/ha" result="0 to 29%"
molecule="COC(=O)c1nc(-c2ccc(Br)cc2)cc(N)c1Cl [Compound 67]" assay_metric="pest or weed control at 70 g/ha" result="0 to 29%"
